These entries and their values trace back to paper PMC3961306.

Molecular target: panel of more than 300 wild-type and mutant kinases (313 kinase panel) (Homo sapiens, UniProt O15530)
Sequence (O15530 1-556): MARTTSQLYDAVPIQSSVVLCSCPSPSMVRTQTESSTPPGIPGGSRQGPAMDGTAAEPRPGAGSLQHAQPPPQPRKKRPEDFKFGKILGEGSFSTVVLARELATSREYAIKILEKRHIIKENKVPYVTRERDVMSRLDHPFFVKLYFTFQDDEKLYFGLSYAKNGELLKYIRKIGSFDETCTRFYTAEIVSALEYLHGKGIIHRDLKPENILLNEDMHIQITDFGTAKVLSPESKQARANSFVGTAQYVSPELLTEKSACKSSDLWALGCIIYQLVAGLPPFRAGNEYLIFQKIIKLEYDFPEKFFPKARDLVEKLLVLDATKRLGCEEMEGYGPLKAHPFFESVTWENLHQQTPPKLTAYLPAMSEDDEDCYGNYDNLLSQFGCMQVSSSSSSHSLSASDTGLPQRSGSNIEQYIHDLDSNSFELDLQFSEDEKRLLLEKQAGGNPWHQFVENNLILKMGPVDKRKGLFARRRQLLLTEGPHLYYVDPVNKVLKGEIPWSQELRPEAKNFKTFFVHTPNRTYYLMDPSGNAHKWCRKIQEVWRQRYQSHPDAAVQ
Assay: Kinase profiling in a biochemical assay panel (mobility shift assays and ELISA), %-inhibition at 1 μM; selectivity entropy
Settings: kinase PDK1; 1 μM
Reported %-inhibition of PDK1 values are given for each entry in this list.
Form entry: value (%) — number only.

In the examples that follow, each entry is paired with its recorded %-inhibition of PDK1.
# COMPOUND, ENDPOINT RESULT
records = [
    ("CC(=O)Nc1cccc(-n2c(=O)n(C3CC3)c(=O)c3c(Nc4ccc(I)cc4F)n(C)c(=O)c(C)c32)c1", -5.52),
    ("Cc1ccc(C(=O)Nc2ccc(CN3CCN(C)CC3)c(C(F)(F)F)c2)cc1C#Cc1cnc2cccnn12", -5),
    ("CCCS(=O)(=O)Nc1ccc(F)c(C(=O)c2c[nH]c3ncc(-c4ccc(Cl)cc4)cc23)c1F", -4),
]

Reported %-inhibition of PDK1 for Cc1ccc(Nc2nccc(N(C)c3ccc4c(C)n(C)nc4c3)n2)cc1S(N)(=O)=O : what is it?
-0.284

Thanks! And COc1cc2nccc(Oc3ccc(NC(=O)C4(C(=O)Nc5ccc(F)cc5)CC4)cc3)c2cc1OC [cabozantinib] ?
-7

Thanks! And COc1cc2c(Nc3ccc(Br)cc3F)ncnc2cc1OCC1CCN(C)CC1 ?
-4.37

Thanks! And CNC(=O)c1cc(Oc2ccc(NC(=O)Nc3ccc(Cl)c(C(F)(F)F)c3)c(F)c2)ccn1 ?
-3

Thanks! And CO[C@H]1C[C@@H]2CC[C@@H](C)[C@@](O)(O2)C(=O)C(=O)N2CCCC[C@H]2C(=O)O[C@H]([C@H](C)C[C@@H]2CC[C@@H](OCCO)[C@H](OC)C2)CC(=O)[C@H](C)/C=C(\C)[C@@H](O)[C@@H](OC)C(=O)[C@H](C)C[C@H](C)/C=C/C=C/C=C/1C ?
-9

Thanks! And N#CC[C@H](C1CCCC1)n1cc(-c2ncnc3[nH]ccc23)cn1 ?
-3.16

* * *

Biological target: panel of more than 300 wild-type and mutant kinases (313 kinase panel) (Homo sapiens, UniProt O00141)
Sequence (O00141 whole entry, change not shown): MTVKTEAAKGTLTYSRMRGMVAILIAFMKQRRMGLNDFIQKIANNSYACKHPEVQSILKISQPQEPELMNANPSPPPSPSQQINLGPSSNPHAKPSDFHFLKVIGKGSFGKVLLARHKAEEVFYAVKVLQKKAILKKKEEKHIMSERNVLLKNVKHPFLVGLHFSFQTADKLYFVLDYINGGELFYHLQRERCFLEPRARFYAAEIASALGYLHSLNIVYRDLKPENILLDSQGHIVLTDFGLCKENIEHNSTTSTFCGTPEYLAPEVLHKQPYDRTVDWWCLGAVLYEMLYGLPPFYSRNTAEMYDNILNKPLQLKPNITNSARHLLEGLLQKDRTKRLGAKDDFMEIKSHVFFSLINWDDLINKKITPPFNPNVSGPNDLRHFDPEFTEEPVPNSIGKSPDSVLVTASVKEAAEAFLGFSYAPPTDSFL
Assay: Kinase profiling in a biochemical assay panel (mobility shift assays and ELISA), %-inhibition at 1 μM; selectivity entropy
Details: kinase SGK; 1 μM
Reported %-inhibition of SGK values are given for each entry in this list.
State the value with its unit after it.

# MOL, %-inhibition of SGK
rows = [
    ("Cc1nc(Nc2ncc(C(=O)Nc3c(C)cccc3Cl)s2)cc(N2CCN(CCO)CC2)n1", "6%"),
    ("Cc1ccc(C(=O)Nc2ccc(CN3CCN(C)CC3)c(C(F)(F)F)c2)cc1C#Cc1cnc2cccnn12", "7.57%"),
    ("CC(=O)Nc1cccc(-n2c(=O)n(C3CC3)c(=O)c3c(Nc4ccc(I)cc4F)n(C)c(=O)c(C)c32)c1", "0.217%"),
]

Reported %-inhibition of SGK for C[C@@H](Oc1cc(-c2cnn(C3CCNCC3)c2)cnc1N)c1c(Cl)ccc(F)c1Cl : what is it?
1.46%
